# Tested on: human endometrial adenocarcinoma Ishikawa cells
# assayInfo: Alkaline phosphatase activity in Ishikawa cells (Example 11)
# Format: cell-based
# assaySetup: Ishikawa cells, five days incubation; intrinsic estrogenic activity
Below, each entry is listed alongside its reported Stimulation of alkaline phosphatase by tested compounds % of 1 nM E2 stimulation.

Oc1ccc2c(c1)CC[C@H](c1ccccc1)[C@@H]2c1ccc(OCCN2CCCC2)cc1 [Lasofoxifene]; 18 % of 1 nM E2 stimulation
CC/C(=C(\c1ccccc1)c1ccc(/C=C/C(=O)O)cc1)c1ccccc1 [GW-5638]; 7.75 ± 5.5 (2) % of 1 nM E2 stimulation
CC/C(=C(\c1ccc(I)cc1)c1ccc(OCCN2CCCC2)cc1)c1ccccc1 [Idoxifene]; 25.1 ± 1.5 (5) % of 1 nM E2 stimulation
CC/C(=C(\c1ccc(O)cc1)c1ccc(OCCN(C)C)cc1)c1ccccc1 [OH-Tamoxifen]; 32.4 ± 2.2 (8) % of 1 nM E2 stimulation
CN(C)CCOc1ccc(/C(=C(/CCCl)c2ccccc2)c2ccc(O)cc2)cc1 [OH-Toremifene]; 29.6 ± 2.1 (6) % of 1 nM E2 stimulation

Stimulation of alkaline phosphatase by tested compounds % of 1 nM E2 stimulation for CC/C(=C(/c1ccc(OCCN(C)C)cc1)c1cccc(O)c1)c1ccccc1 [Droloxifene] ?
23.8 ± 3.1 (7) % of 1 nM E2 stimulation

---

# Tested on: human breast cancer MCF-7 cells
# assayInfo: Proliferation of MCF-7 cell line, DNA content (Example 12)
# Format: cell-based
# assaySetup: Homo sapiens, MCF7; MCF-7 cells, text summary of table 12; read-out: EC50 of inhibition (antiestrogen activity)
readout: EC50 (nM)
Express the result in nM but write the number alone.

Recorded EC50 for CC1=C(c2ccc(O)cc2)[C@H](c2ccc(OCCN3CCCCC3)cc2)Oc2cc(O)ccc21.Cl [EM-652.HCl] , please?
0.8

Field request: EC50 | item: Cc1c(-c2ccc(O)cc2)n(Cc2ccc(OCCN3CCCCC3)cc2)c2ccc(O)cc12 [ERA-923]
3.7

---

# Tested on: ovariectomized female rats
# assayInfo: SERM comparison, energy balance and lipid-lipoprotein metabolism (Example 10)
# Assay type: in vivo, Rattus norvegicus
# assaySetup: OVX rats, high carbohydrate diet, 0.5 mg/rat oral gavage, 20 days
readout: Serum triglycerides (mmol/L)
Give just the number in mmol/L; leave the unit off.

Answered cases to consult:
CC1=C(c2ccc(O)cc2)[C@H](c2ccc(OCCN3CCCCC3)cc2)Oc2cc(O)ccc21.Cl [EM-652.HCl]; 0.91
COc1ccc(-c2sc3cc(O)ccc3c2Oc2ccc(OCCN3CCCCC3)cc2)cc1.Cl [LY 353381]; 1.23
Cl.O=C(c1ccc(OCCN2CCCCC2)cc1)c1c(-c2ccc(O)cc2)sc2cc(O)ccc12 [Raloxifene]; 1.20
Cc1c(-c2ccc(O)cc2)n(Cc2ccc(OCCN3CCCCC3)cc2)c2ccc(O)cc12 [ERA-923]; 0.93
C[C@]12CC[C@@H]3c4ccc(O)cc4CC[C@H]3[C@@H]1CC[C@@H]2O [E2, estradiol]; 0.43

Entry Oc1ccc2c(c1)CC[C@H](c1ccccc1)[C@@H]2c1ccc(OCCN2CCCC2)cc1 [Lasofoxifene] : reported Serum triglycerides = ?
0.81

---

# System: ovariectomized female rats
# assayInfo: SERM comparison, energy balance and lipid-lipoprotein metabolism (Example 10)
# Type: in vivo, Rattus norvegicus
# assaySetup: OVX rats, high carbohydrate diet, 0.5 mg/rat oral gavage, 20 days
readout: VastusLateralis muscle weight
Write your answer as a measured quantity: the number, then the unit.

Cl.O=C(c1ccc(OCCN2CCCCC2)cc1)c1c(-c2ccc(O)cc2)sc2cc(O)ccc12 [Raloxifene]; 0.795 ± 0.055 g
COc1ccc(-c2sc3cc(O)ccc3c2Oc2ccc(OCCN3CCCCC3)cc2)cc1.Cl [LY 353381]; 0.955 ± 0.20 g
C[C@]12CC[C@@H]3c4ccc(O)cc4CC[C@H]3[C@@H]1CC[C@@H]2O [E2, estradiol]; 0.718 ± 0.026 g
CC1=C(c2ccc(O)cc2)[C@H](c2ccc(OCCN3CCCCC3)cc2)Oc2cc(O)ccc21.Cl [EM-652.HCl]; 1.00 ± 0.047 g
Oc1ccc2c(c1)CC[C@H](c1ccccc1)[C@@H]2c1ccc(OCCN2CCCC2)cc1 [Lasofoxifene]; 0.800 ± 0.048 g

Endpoint output: VastusLateralis muscle weight of Cc1c(-c2ccc(O)cc2)n(Cc2ccc(OCCN3CCCCC3)cc2)c2ccc(O)cc12 [ERA-923] . Value?
0.993 ± 0.33 g

---

# System: ovariectomized female rats
# assayInfo: SERM comparison, energy balance and lipid-lipoprotein metabolism (Example 10)
# Format: in vivo, Rattus norvegicus
# assaySetup: OVX rats, high carbohydrate diet, 0.5 mg/rat oral gavage, 20 days
# Method: For this purpose, tested compounds were administered by oral gavage for 20 days (0.5 mg/rat for each compound; 0.5 ml/rat) in 0.4% methylcellulose to ovariectomized female rats. […] Food consumption was evaluated every 2 days. In order to determine the effect of treatments on fat percentage, body composition was measured on Day 17 of the study using dual energy x-ray absorptiometry (DEXA; QDR 4500A, Hologic, Waltham, Mass.). […]
Listed below: Soleus muscle weight values for each entry.
Answer with a number only, understood to be in g.

C[C@]12CC[C@@H]3c4ccc(O)cc4CC[C@H]3[C@@H]1CC[C@@H]2O [E2, estradiol]; 0.086
Cc1c(-c2ccc(O)cc2)n(Cc2ccc(OCCN3CCCCC3)cc2)c2ccc(O)cc12 [ERA-923]; 0.100
CC1=C(c2ccc(O)cc2)[C@H](c2ccc(OCCN3CCCCC3)cc2)Oc2cc(O)ccc21.Cl [EM-652.HCl]; 0.118

Param readout= Soleus muscle weight; system= ovariectomized female rats; entry= COc1ccc(-c2sc3cc(O)ccc3c2Oc2ccc(OCCN3CCCCC3)cc2)cc1.Cl [LY 353381] ; returns value.
0.092

Recorded Soleus muscle weight for Oc1ccc2c(c1)CC[C@H](c1ccccc1)[C@@H]2c1ccc(OCCN2CCCC2)cc1 [Lasofoxifene] with ovariectomized female rats, please?
0.096

Record lookup: for ovariectomized female rats, what Soleus muscle weight belongs to Cl.O=C(c1ccc(OCCN2CCCCC2)cc1)c1c(-c2ccc(O)cc2)sc2cc(O)ccc12 [Raloxifene] ?
0.099

---

# System: ovariectomized female rats
# assayInfo: SERM comparison, energy balance and lipid-lipoprotein metabolism (Example 10)
# Format: in vivo, Rattus norvegicus
# assaySetup: OVX rats, high carbohydrate diet, 0.5 mg/rat oral gavage, 20 days
Tag: 1 (yes) if measured White adipose tissue inguinal weight is not below 0.2 g, 0 (no) if it is.

COc1ccc(-c2sc3cc(O)ccc3c2Oc2ccc(OCCN3CCCCC3)cc2)cc1.Cl [LY 353381]; 1 (yes)
C[C@]12CC[C@@H]3c4ccc(O)cc4CC[C@H]3[C@@H]1CC[C@@H]2O [E2, estradiol]; 0 (no)
Cl.O=C(c1ccc(OCCN2CCCCC2)cc1)c1c(-c2ccc(O)cc2)sc2cc(O)ccc12 [Raloxifene]; 1 (yes)
Oc1ccc2c(c1)CC[C@H](c1ccccc1)[C@@H]2c1ccc(OCCN2CCCC2)cc1 [Lasofoxifene]; 0 (no)
CC1=C(c2ccc(O)cc2)[C@H](c2ccc(OCCN3CCCCC3)cc2)Oc2cc(O)ccc21.Cl [EM-652.HCl]; 1 (yes)

We next turn to a different compound, shown below.
Please indicate if the recorded White adipose tissue inguinal weight for Cc1c(-c2ccc(O)cc2)n(Cc2ccc(OCCN3CCCCC3)cc2)c2ccc(O)cc12 [ERA-923] meets or exceeds 0.2 g.
1 (yes)

---

# System: ovariectomized female rats
# assayInfo: SERM comparison, energy balance and lipid-lipoprotein metabolism (Example 10)
# Assay type: in vivo, Rattus norvegicus
# assaySetup: OVX rats, high carbohydrate diet, 0.5 mg/rat oral gavage, 20 days
readout: Serum glucose (mmol/L)
Write the answer as a number in mmol/L, unit excluded.

Worked cases, answers included:
Cl.O=C(c1ccc(OCCN2CCCCC2)cc1)c1c(-c2ccc(O)cc2)sc2cc(O)ccc12; 13.8
Cc1c(-c2ccc(O)cc2)n(Cc2ccc(OCCN3CCCCC3)cc2)c2ccc(O)cc12; 16.5
CC1=C(c2ccc(O)cc2)[C@H](c2ccc(OCCN3CCCCC3)cc2)Oc2cc(O)ccc21.Cl [EM-652.HCl]; 15.9
Oc1ccc2c(c1)CC[C@H](c1ccccc1)[C@@H]2c1ccc(OCCN2CCCC2)cc1; 15.8
COc1ccc(-c2sc3cc(O)ccc3c2Oc2ccc(OCCN3CCCCC3)cc2)cc1.Cl; 17.1

// next item, Serum glucose requested
Serum glucose lookup needed for C[C@]12CC[C@@H]3c4ccc(O)cc4CC[C@H]3[C@@H]1CC[C@@H]2O [E2, estradiol] , thanks.
11.8

Values from patent US8609695B2
